protocol: Solubility measurements of Forms I and II in aqueous acetonitrile (HPLC, equilibrium plateau)
Format: physicochemical
experimentalContext: aqueous acetonitrile, 12.5 °C, organic solvent or mixture, thermodynamic from solid, aqueous acetonitrile, water concentration 3.5 v/v %, 12.5 °C; read-out: Solubility
Where a name gives a salt, the structure may show the parent alone.
attributeMeasured: solubility (mg/mL)
Please state the figure in mg/mL; there is no need to write the unit.

// lookup solubility for O=C(N[C@H]1CN2CCC1CC2)c1cc2cccc(Cl)c2s1 [Form I, hydrochloride monohydrate]
5.4

* * *

protocol: Solubility measurements of Forms I and II in aqueous acetonitrile (HPLC, equilibrium plateau)
Assay type: physicochemical
experimentalContext: aqueous acetonitrile, 37.5 °C, organic solvent or mixture, thermodynamic from solid, aqueous acetonitrile, water concentration 8.5 v/v %, 37.5 °C; read-out: Solubility
Counter-ions that a name gives are not always drawn.
attributeMeasured: solubility (mg/mL)
Please state the figure in mg/mL; there is no need to write the unit.

// lookup solubility for O=C(N[C@H]1CN2CCC1CC2)c1cc2cccc(Cl)c2s1 [Form I, hydrochloride monohydrate]
44.4

* * *

protocol: Solubility measurements of Forms I and II in aqueous acetonitrile (HPLC, equilibrium plateau)
Assay type: physicochemical
experimentalContext: aqueous acetonitrile, 5 °C, organic solvent or mixture, thermodynamic from solid, aqueous acetonitrile, water concentration 2 v/v %, 5 °C; read-out: Solubility
Where a name gives a salt, the structure may show the parent alone.
attributeMeasured: solubility (µg/mL)
Please state the figure in µg/mL; there is no need to write the unit.

// lookup solubility for O=C(N[C@H]1CN2CCC1CC2)c1cc2cccc(Cl)c2s1 [Form I, hydrochloride monohydrate]
2400

* * *

protocol: Solubility measurements of Forms I and II in aqueous acetonitrile (HPLC, equilibrium plateau)
Type: physicochemical
experimentalContext: aqueous acetonitrile, 25 °C, organic solvent or mixture, thermodynamic from solid, aqueous acetonitrile, water concentration 6 v/v %, 25 °C; read-out: Solubility
Counter-ions that a name gives are not always drawn.
attributeMeasured: solubility (mg/mL)
Please state the figure in mg/mL; there is no need to write the unit.

// lookup solubility for O=C(N[C@H]1CN2CCC1CC2)c1cc2cccc(Cl)c2s1 [Form I, hydrochloride monohydrate]
17.1

* * *

protocol: Solubility measurements of Forms I and II in aqueous acetonitrile (HPLC, equilibrium plateau)
Type: physicochemical
experimentalContext: aqueous acetonitrile, 5 °C, organic solvent or mixture, thermodynamic from solid, aqueous acetonitrile, water concentration 10 v/v %, 5 °C; read-out: Solubility
Counter-ions that a name gives are not always drawn.
attributeMeasured: solubility
# include the unit after the value

// lookup solubility for O=C(N[C@H]1CN2CCC1CC2)c1cc2cccc(Cl)c2s1 [Form II, hydrochloride monohydrate]
29.7 mg/mL

* * *

protocol: Solubility measurements of Forms I and II in aqueous acetonitrile (HPLC, equilibrium plateau)
Format: physicochemical
experimentalContext: aqueous acetonitrile, 45 °C, organic solvent or mixture, thermodynamic from solid, aqueous acetonitrile, water concentration 2 v/v %, 45 °C; read-out: Solubility
Structures can show the parent of a compound that is named as a salt.
attributeMeasured: solubility (µg/mL)
Please state the figure in µg/mL; there is no need to write the unit.

// lookup solubility for O=C(N[C@H]1CN2CCC1CC2)c1cc2cccc(Cl)c2s1 [Form I, hydrochloride monohydrate]
8700

* * *

protocol: Solubility measurements of Forms I and II in aqueous acetonitrile (HPLC, equilibrium plateau)
Type: physicochemical
experimentalContext: aqueous acetonitrile, 5 °C, organic solvent or mixture, thermodynamic from solid, aqueous acetonitrile, water concentration 0 v/v %, 5 °C; read-out: Solubility
Where a name gives a salt, the structure may show the parent alone.
attributeMeasured: solubility (µg/mL)
Please state the figure in µg/mL; there is no need to write the unit.

// lookup solubility for O=C(N[C@H]1CN2CCC1CC2)c1cc2cccc(Cl)c2s1 [Form I, hydrochloride monohydrate]
1000
